Values were extracted from ChEMBL document CHEMBL1134109.

biological target: NS3 (Hepatitis C virus); experiment: Inhibitory activity against hepatitis C virus helicase at 25 ug/mL; settings: Hepacivirus hominis
OBSERVED PROPERTY: inhibition (%)

* O=C(CCCCCCCC(=O)Nc1nc2ccccc2[nH]1)Nc1nc2ccccc2[nH]1 | 6
* O=C(Nc1ccc(-c2nc3ccccc3[nH]2)cc1)c1ccc(C(=O)Nc2ccc(-c3nc4ccccc4[nH]3)cc2)cc1 | 75
* O=C(CCC(=O)Nc1nc2ccccc2[nH]1)Nc1nc2ccccc2[nH]1 | 6

I = O=C(CCCCCCC(=O)Nc1nc2ccccc2[nH]1)Nc1nc2ccccc2[nH]1
II = O=C(CCCCC(=O)Nc1ccc(-c2nc3ccccc3[nH]2)cc1)Nc1ccc(-c2nc3ccccc3[nH]2)cc1
III = O=C(NCCCCNC(=O)Nc1ccc(-c2nc3ccccc3[nH]2)cc1)Nc1ccc(-c2nc3ccccc3[nH]2)cc1
Place the items in sequence of falling inhibition. // list labels; follow requested order
II, III, I
(II: 75%, III: 20%, I: 6%)
